# Test system: MDA-MB-231 breast
# method-notes: NCI-60 one-dose screen, 48 h (100 = growth as untreated, 0 = no growth, -100 = all killed)
# conditions: 10 µM unless noted
About 83,000 compounds went through this panel and 20% of them were active in at least one assay; those are over-represented in the sample as a whole.
endpoint-label: growth (%)
The answer is to be given in %; state only the numeric part.

Problem: For O=C(Nc1ccc(C2=NCCCN2)cc1)Nc1ccc(C2=NCCCN2)cc1 , what is its reported growth?
Result: 112

Problem: For CC(C)c1ccc(C(=O)Nc2sc3c(CN(C)C)c(O)ccc3c2C(N)=O)cc1 , what is its reported growth?
Result: 38.5

Problem: For CC(C)COCC(CN(Cc1ccccc1)c1ccccc1)N1CCCC1 (configuration not stated) , what is its reported growth?
Result: 29.5

Problem: For CCCCOc1ccc(C(C)(C)c2ccc(OCCCC)cc2)cc1 , what is its reported growth?
Result: 111

Problem: For Nc1ccccc1-c1ccc([N+](=O)[O-])cc1 , what is its reported growth?
Result: 67

Problem: For COc1ccc2nc(NC(=O)c3cc(-c4ccc(F)cc4)n4nc(-c5ccccc5)cc4n3)sc2c1 , what is its reported growth?
Result: 72.8

Problem: For COc1ccc(-c2c3c(nn2-c2ccc(N)cc2)CCc2cnoc2-3)cc1OC , what is its reported growth?
Result: 88.5

Problem: For Cc1c(C(N)=O)sc2nc(SCC(=O)Nc3ccc(Cl)cc3)n(-c3ccccc3)c(=O)c12 , what is its reported growth?
Result: 93.1

Problem: For COc1ccc2c(c1)C(=O)c1c-2c(OCCN(C)C)nc2cc(OC)ccc12 , what is its reported growth?
Result: 1.22

Problem: For O=C(/C=C/c1ccccc1Cl)c1ccc(O)cc1 , what is its reported growth?
Result: 89

Problem: For CCCCCCCCCCC[C@@H](C[C@H]1OC(=O)[C@H]1CCCCCC)OC(=O)[C@@H](CC(C)C)NC=O , what is its reported growth?
Result: 60.9

Problem: For O=C(/C(=N/O)S(=O)(=O)c1ccccc1)c1cccs1 , what is its reported growth?
Result: 109

Problem: For COC(=O)CCC1=C(C)/C(=C/c2[nH]c(-c3ccc[nH]3)cc2OC)N=C1C , what is its reported growth?
Result: -17

Problem: For COc1ccc(/C=C2\NC(=S)NC2=O)cc1 , what is its reported growth?
Result: 94.5

Problem: For Nc1ccc2c3c(cccc13)-c1ccccc1-2 , what is its reported growth?
Result: 76.5

Problem: For COc1ccc(C2CC(c3ccc(OC)c(OC)c3)=NN2C(=O)c2cc(OC)c(OC)c(OC)c2)cc1 (configuration not stated) , what is its reported growth?
Result: 12.6

Problem: For O=C(Nc1ccc(Cl)cc1)Nc1ccc(Oc2nncc3ccccc23)cc1 , what is its reported growth?
Result: -25.2

Problem: For COc1ccc(-n2nnc(C(=O)O)c2-c2cc(OC)c(OC)c(OC)c2)cc1 , what is its reported growth?
Result: 122

Problem: For CC(c1ccccn1)C(C)(O)C(C)c1ccccn1 (configuration not stated) , what is its reported growth?
Result: 92.8

Problem: For CC(=O)c1nc2ccccc2n1CCn1cc(CC(N)C(=O)O)c2ccccc21 (configuration not stated) , what is its reported growth?
Result: 77.3

Problem: For COC(=O)[C@]1(CCSC)N[C@H](c2cn(-c3ccccc3)nc2C)[C@@H]2C(=O)N(c3ccc(C)cc3)C(=O)[C@@H]21 , what is its reported growth?
Result: 104

Problem: For CN1CCCC1c1cccnc1 (configuration not stated) , what is its reported growth?
Result: 97.3

Problem: For CC[C@]1(O)CC2CN(CCc3c([nH]c4ccccc34)[C@@](C(=O)OC)(c3cc4c(cc3OC)N(C)[C@H]3[C@@](O)(C(=O)OC)[C@H](OC(C)=O)[C@]5(CC)C=CCN6CC[C@]43[C@@H]65)C2)C1 (some centres not stated) , what is its reported growth?
Result: 5.18

Problem: For Cc1ccc(C(C)C)cc1NC(=O)Nc1ccc([N+](=O)[O-])cc1 , what is its reported growth?
Result: 35.6

Problem: For CCC1(c2ccccc2)Oc2ccccc2-n2c(C#N)c3ccccc3c2C1=O (configuration not stated) , what is its reported growth?
Result: 98.5

Problem: For COC1=CC(c2ccc[nH]2)=N/C1=C\c1[nH]c(C)c(C(=O)CCC(=O)Oc2ccc3c(c2)CCC2C3CC[C@]3(C)C(=O)CC[C@@H]23)c1C (some centres not stated) , what is its reported growth?
Result: 1.14

Problem: For Cn1[nH]cc(/C=N/C(N)=O)c1=O , what is its reported growth?
Result: 101

Problem: For COc1ccc(-c2cc(C(=O)Nc3nc4cc(C)c(C)cc4s3)nc3cc(-c4ccccc4)nn23)cc1OC , what is its reported growth?
Result: 107

Problem: For O=c1ccn(C2OC(CO)C(O)C2F)c(=O)[nH]1 (configuration not stated) , what is its reported growth?
Result: 117

Problem: For CN(C(=O)c1ccccc1)N(C)C(=O)c1ccccc1 , what is its reported growth?
Result: 107

Problem: For Nc1nc(Cl)c2[nH]cnc2n1 , what is its reported growth?
Result: 111

Problem: For Cc1nn(-c2ccc(Cl)cc2)c2nc3c(nc12)C(=O)c1ccccc1-3 , what is its reported growth?
Result: 52.7

Problem: For COc1cc2c(C#N)n3c(c2cc1OC)C(=O)C(c1ccccc1)Oc1ccccc1-3 (configuration not stated) , what is its reported growth?
Result: 64.1

Problem: For O=C(Cc1ccccn1)C(F)(F)C(F)(F)C(F)(F)F , what is its reported growth?
Result: 102

Problem: For COc1ccc(-c2csc(NC(=O)c3cc(OC)c(OC)c(OC)c3)n2)cc1 , what is its reported growth?
Result: 109

Problem: For C/C(=C\CCc1ccoc1)CC/C=C(\C)CCCN1CCC(CO)CC1 , what is its reported growth?
Result: 50

Problem: For COc1cc(/C=C/C(=O)Nc2cccnc2Nc2cc(OC)c(OC)c(OC)c2)cc(OC)c1OC , what is its reported growth?
Result: 90.7

Problem: For COc1cc(/C=C/C(=O)c2c(-c3ccc(Cl)cc3)nc3sc(C)nn23)cc(OC)c1OC , what is its reported growth?
Result: 72.2

Problem: For C=C(C)[C@@H]1C/C=C(/C=O)CC[C@@H]2O[C@@]2(C)CC/C=C(\C)CC1 , what is its reported growth?
Result: 111

Problem: For N#Cc1cccc(/C=C(/C(=O)c2ccccc2)c2ccccc2)c1 , what is its reported growth?
Result: 54.5

Problem: For NNC(=O)NO , what is its reported growth?
Result: 122

Problem: For CCCCCCCC1(C)NC(=O)NC1=O (configuration not stated) , what is its reported growth?
Result: 116
